- Tested on: Tov-21-G
- Test protocol: Primary qHTS to identify gynecologic anti-cancer compounds using libraries of approved drugs and bioactive compounds (AID 1345084); further: on the % scale 0 is the no-effect control and ±100 the full control effect; nearly all actives have a fitted effect of over 55% in size
- Test settings: Gynecologic cancer cell panel viability, ATPlite luminescence, 48 h; series mostly up to 57.5 µM
Records with an inconclusive call do not appear. Activity calls are given as the source filed them. The call rests on the fitted dose curve; in most records, active means well fitted cell-killing curve with a large enough effect; inconclusive means small, poorly fitted or top-dose-only effect, or effect the other way; inactive means flat fitted curve, though single readings scatter.

>  <Compound>
C[C@H]1CC[C@@]2(OC1)O[C@H]1CC3C4CC[C@H]5C[C@@H](O[C@@H]6O[C@H](CO)[C@H](O[C@@H]7O[C@H](CO)[C@@H](O)[C@H](O[C@@H]8OC[C@@H](O)[C@H](O)[C@H]8O)[C@H]7O[C@@H]7O[C@H](CO)[C@@H](O)[C@H](O)[C@H]7O)[C@H](O)[C@H]6O)[C@H](O)C[C@]5(C)C4=CC(=O)[C@]3(C)[C@H]1[C@@H]2C (stereo not given in full)

>  <Measurement target>
Tov-21-G

>  <activity change, negative = cytotoxicity>
-4.82% [at 11.6 µM] (inactive)

$$$$
>  <Compound>
CC1(C)CC[C@]2(C(=O)O)CC[C@]3(C)C(=CCC4[C@@]5(C)CC[C@H](O[C@H]6O[C@H](C(=O)O)[C@@H](O)[C@H](O[C@@H]7O[C@H](CO)[C@H](O)[C@H](O)[C@H]7O)[C@H]6O)C(C)(C)C5CC[C@]43C)[C@@H]2C1 (stereo not given in full)

>  <Measurement target>
Tov-21-G

>  <activity change, negative = cytotoxicity>
6.29% [at 11.6 µM] (inactive)

$$$$
>  <Compound>
CC1=CC23[C@H](C=C(C(=O)O)[C@@H]2COC(=O)[C@]3(O)CO)[C@@H]1C (stereo not given in full)

>  <Measurement target>
Tov-21-G

>  <activity change, negative = cytotoxicity>
inactive

$$$$
>  <Compound>
CC(C)=CC1C[C@](C)(O)[C@@H]2[C@H]3CCC4[C@@]5(C)CC[C@H](O[C@@H]6OC[C@H](O)[C@H](O[C@@H]7O[C@H](CO[C@@H]8O[C@H](CO)[C@@H](O)[C@H](O)[C@H]8O)[C@@H](O)[C@H](O)[C@H]7O)[C@H]6O[C@@H]6O[C@@H](C)[C@H](O)[C@@H](O)[C@H]6O)C(C)(C)[C@@H]5CC[C@@]4(C)[C@@]34CO[C@@]2(C4)O1 (stereo not given in full)

>  <Measurement target>
Tov-21-G

>  <activity change, negative = cytotoxicity>
9.39% [at 11.6 µM] (inactive)

$$$$
>  <Compound>
COC(=O)C1=COC(OC2OC(CO)C(O)C(O)C2O)C2C(COC(=O)/C=C/c3ccc(O)cc3)C(O)C(O)C12 (stereo not given)

>  <Measurement target>
Tov-21-G

>  <activity change, negative = cytotoxicity>
inactive

$$$$
